Test system: murine neural precursor cells (neurosphere cultures)
Experiment Notes: HTS of LOPAC library against secondary neurosphere cultures, MTT proliferation assay at 3 μM, day 7 (z score, P value)
Type: cell-based, mouse
Experimental Conditions: LOPAC library screen, 3 μM, MTT, secondary neurosphere cultures, day 7
Where a name gives a salt, the structure may show the parent alone.
Let's look at some compounds and their measured Z Score.
Observed Property: Z Score

> print(dat)
                                   compound  observed.property  recorded.result
1  O=C(c1ccc(OCCN2CCCCC2)cc1)c1c(-c2ccc(O)cc2)sc2cc(O)ccc12 [Raloxifene hydrochloride]            Z Score           −9.222
2  N=c1ccn2c(n1)O[C@H]1[C@H](O)[C@@H](CO)O[C@H]12 [Ancitabine hydrochloride]            Z Score           −9.951
3  NC/C=C/C(=O)O [(E)-4-amino-2-butenoic acid]            Z Score           −2.149
4  CC/C(=C(\c1ccccc1)c1ccc(OCCN(C)C)cc1)c1ccccc1 [Tamoxifen citrate]            Z Score           −10.64
5  NCC(=O)NCCC(c1ccccc1)c1ccccc1 [N-(3,3-Diphenylpropyl)glycinamide]            Z Score           −1.243
6  CCC(=O)c1ccc2c(c1)N(CCCN(C)C)c1ccccc1S2 [Propionylpromazine hydrochloride]            Z Score           −1.584
7  NCC(O)(CS(=O)(=O)O)c1ccc(Cl)cc1 (stereo not drawn) [2-Hydroxysaclofen]            Z Score           −1.624
8  CC(=O)O.CNC(=N)NCCC[C@H](N)C(=O)O [NG-Monomethyl-L-arginine acetate]            Z Score           −1.386
9              CC(=O)NBr [N-Bromoacetamide]            Z Score           −1.362

###

Test system: murine neural precursor cells (neurosphere cultures)
Experiment Notes: HTS of LOPAC library against secondary neurosphere cultures, MTT proliferation assay at 3 μM, day 7 (z score, P value)
Type: cell-based, mouse
Experimental Conditions: LOPAC library screen, 3 μM, MTT, secondary neurosphere cultures, day 7
Counter-ions that a name gives are not always drawn.
Classification field: satisfied = Z Score at or over -2; not satisfied = Z Score under -2.

Molecule	Assigned Class
N#Cc1cc2nc([O-])c([O-])nc2cc1[N+](=O)[O-].[Na+].[Na+] [CNQX disodium]	satisfied
CC(C)N(CCC(C(N)=O)(c1ccccc1)c1ccccn1)C(C)C (stereo not drawn) [Disopyramide]	not satisfied
c1ccc2c(c1)[I+]c1ccccc1-2 [Diphenyleneiodonium (33), Diphenyleneiodonium, reference compound]	not satisfied
O=c1c2ccccc2[nH]c(=S)n1CCN1CCC(=C(c2ccc(F)cc2)c2ccc(F)cc2)CC1 [Diacylglycerol Kinase Inhibitor II]	satisfied
c1ccc2c(CC3=NCCN3)cccc2c1 [Naphazoline hydrochloride]	satisfied
CC1=NN=C(c2ccc(N)cc2)c2cc3c(cc2C1)OCO3 [GYKI 52466 hydrochloride]	satisfied
Nc1ccc(S(=O)(=O)Nc2ccnn2-c2ccccc2)cc1 [Sulfaphenazole]	satisfied
CN1C[C@@H](NS(=O)(=O)N(C)C)C[C@@H]2c3cccc4c3c(cn4C)C[C@H]21 [Mesulergine hydrochloride]	not satisfied
COc1ccc2c(c[n+](C)c3c4cc5c(cc4ccc23)OCO5)c1OC [Chelerythrine (36), Chelerythrine, reference compound]	not satisfied
CC1=C(/C=C/C(C)=C/C=C/C(C)=C\C(=O)O)C(C)(C)CCC1 [13-cis-retinoic acid]	satisfied
CC(C)OC(=O)C(C)(C)Oc1ccc(C(=O)c2ccc(Cl)cc2)cc1 [Fenofibrate]	not satisfied
Cn1cnc2c(NC3CCCC3)ncnc21 [N6-Cyclopentyl-9-methyladenine]	not satisfied
CC(C)(C)c1cc(C=C(C#N)C#N)cc(C(C)(C)C)c1O [Tyrphostin A9]	satisfied
CN1[C@@H]2CC[C@H]1C[C@@H](OC(c1ccccc1)c1ccccc1)C2 [Benztropine mesylate]	not satisfied
CCc1ccccc1OC[C@@H](O)CN[C@H]1CCCc2ccccc21.O=C(O)C(=O)O [SR 59230A oxalate]	satisfied
C[C@@H](NC(=O)/C(C#N)=C/c1ccc(O)c(O)c1)c1ccccc1 [Tyrphostin AG 527]	satisfied
CCCCCN(CCCCC)C(=O)C(CCC(=O)O)NC(=O)c1ccc(Cl)c(Cl)c1 (stereo not drawn) [Lorglumide sodium]	not satisfied
Cc1nc(-c2ccc(-c3ccc(C(=O)N4CCc5cc6c(cc54)C4(CCN(C)CC4)CO6)cc3)c(C)c2)no1.Cl [SB 224289 hydrochloride]	not satisfied
N[C@@H]1C[C@H]1c1ccccc1 [Tranylcypromine hydrochloride]	satisfied
O=c1cc(-c2ccc(O)c(O)c2)oc2cc(O)cc(O)c12 [Luteolin]	satisfied
CC(N/C(=N\C#N)Nc1ccncc1)C(C)(C)C (stereo not drawn) [Pinacidil]	not satisfied
Cn1c(=O)c2[nH]cnc2n(C)c1=O.Cn1c(=O)c2[nH]cnc2n(C)c1=O.NCCN [Aminophylline ethylenediamine]	satisfied
C[C@@H]1O[C@@H](O[C@H]2C[C@@H](O)[C@]3(CO)[C@H]4[C@H](O)C[C@]5(C)[C@@H](C6=CC(=O)OC6)CC[C@]5(O)[C@@H]4CC[C@]3(O)C2)[C@H](O)[C@H](O)[C@H]1O [Ouabain]	satisfied
CC(=O)CCCCn1c(=O)c2c(ncn2C)n(C)c1=O [Pentoxifylline]	satisfied
CN1C[C@H](CNC(=O)OCc2ccccc2)C[C@@H]2c3cccc4c3c(cn4C)C[C@H]21 [Metergoline (39), Metergoline, reference compound]	not satisfied
CN(C)CCCN1c2ccccc2Sc2ccc(C(F)(F)F)cc21 [Triflupromazine hydrochloride]	satisfied
CC(C)(C)C1(O)CCN2CC3c4ccccc4CCc4cccc(c43)C2C1.Cl (single isomer, unassigned; (+)) [(+)-Butaclamol hydrochloride]	not satisfied

Cited source: patent US8058243B2
